Listing: MTD, maximally tolerated dose of selected compounds
Assay: maximally tolerated dose for female mice, ip qDX5 (P388 study)
Type: in vivo, mouse
Settings: B62DF female mice, ip qDX5 regimen
Protocol: 10^6 P388 leukemia cells are inoculated ip in B6D2F1 mice. Twenty-four hours later, if the tumor inoculum proves to be free of bacterial contamination (as determined by 24 hours incubation in thioglycollate broth), animals are randomized into groups of 6 and housed in shoebox cages. […] Animals are monitored daily for mortality and experiments are terminated after 45 days. […]
quantity: MTD, maximally tolerated dose (mg/kg)

1) [Cl][Au][PH](CC[PH]([Au][Cl])(c1ccccn1)c1ccccn1)(c1ccccn1)c1ccccn1 [Compound 1]
6
2) [Au+].[Cl-].c1ccc(P(CCP(c2ccccn2)c2ccccn2)c2ccccn2)nc1.c1ccc(P(CCP(c2ccccn2)c2ccccn2)c2ccccn2)nc1 [Compound 3]
8
3) OCC1OC([S][Au][PH](CC[PH]([Au][S]C2OC(CO)C(O)C(O)C2O)(c2ccccn2)c2ccccn2)(c2ccccn2)c2ccccn2)C(O)C(O)C1O (stereo not shown) [Compound 4]
8
4) [Cl][Au][PH](CC[PH]([Au][Cl])(c1ccncc1)c1ccncc1)(c1ccncc1)c1ccncc1 [Compound 2]
12
